- condition-info: buffer; pH 7.4; 200.0 µM
Parameter solubility kinetic: see the listing below.
Please respond with the number in µg/mL and leave the unit unwritten.

Field: example entries. Status: answers known.
compound	reported-result
CC1CC(C)CN(C(=O)c2cccc3c2-c2ccccc2C3=O)C1 (configuration not stated)	5
COc1ccc(Cc2nc(-c3cccnc3)no2)cc1OC	41
Cc1ccccc1NC(=O)NC1CCCCCCC1	1.5

**Query** Form field: reported solubility kinetic of COc1ccccc1C(C)NC(=O)CCNC(=O)c1ccc(Cl)cc1 (configuration not stated)
**Result** 4.5

**Query** Form field: reported solubility kinetic of O=C(COc1ccccc1)N1CCN=C1SCc1cccc(F)c1
**Result** 3.4

###

- condition-info: buffer; pH 7.4; 200.0 µM
assay-endpoint: solubility kinetic

Field: example entries. Status: answers known.
compound	solubility kinetic
Cc1cc([N+](=O)[O-])nn1CC(=O)NC(C)c1ccccc1 (stereo not drawn)	> 43.2 µg/mL
COc1cc2c(cc1OC)C(c1ccccc1Br)NC(=O)C2 (stereo not drawn)	> 54.3 µg/mL

Turning now to a further record.
**Query** Form field: reported solubility kinetic of CCCNC(=O)NS(=O)(=O)c1ccc(Cl)cc1
**Result** > 41.5 µg/mL

###

- condition-info: buffer; pH 7.4; 200.0 µM
assay-endpoint: solubility kinetic

Field: example entries. Status: answers known.
compound	solubility kinetic
COc1ccc(Cc2nnc(NCCO)[nH]c2=O)cc1	> 41.4 µg/mL
CCNC(=S)Nc1ccc(-c2nc3ccccc3[nH]2)cc1	> 44.5 µg/mL
CN1C(=O)N(c2ccc(Cl)cc2)C(C)(O)CC1(C)C (stereo unspecified)	> 42.4 µg/mL
CCCc1cc(=O)[nH]c(SCC(=O)Nc2nonc2C)n1	> 46.4 µg/mL

**Query** Form field: reported solubility kinetic of COC(=O)c1cc(Nc2cc(C)c3ccc(O)cc3n2)cc(C(=O)OC)c1
**Result** < 0.4 µg/mL

**Query** Form field: reported solubility kinetic of CCOc1ccccc1Nc1nc(N)nc(CN2CCCCC2C)n1 (stereo unspecified)
**Result** > 51.4 µg/mL

**Query** Form field: reported solubility kinetic of Cc1ccc(S(=O)(=O)NC(=O)c2ccccc2F)cc1
**Result** > 44 µg/mL

**Query** Form field: reported solubility kinetic of O=C(CN1c2cccc3cccc(c23)S1(=O)=O)Nc1ccccc1
**Result** 0.4 µg/mL

**Query** Form field: reported solubility kinetic of Cc1ccc(/C(O)=C2\C(=O)C(=O)N(C)C2c2ccc([N+](=O)[O-])cc2)cc1 (stereo unspecified)
**Result** > 52.9 µg/mL

**Query** Form field: reported solubility kinetic of Cc1cc(C)cc(NC2=C(N)C(=O)c3ccccc3C2=O)c1
**Result** 0.4 µg/mL

**Query** Form field: reported solubility kinetic of CCn1c(=O)c(C(=O)Nc2ccccc2)c(O)c2ccccc21
**Result** < 0.3 µg/mL

###

- condition-info: buffer; pH 7.4; 200.0 µM
Classify by measured solubility kinetic: TRUE if it is equal to or exceeds 40 µg/mL, FALSE if it is smaller.

compound	answer-label
O=C(NCCOc1ccccc1)C1=CC=CN2CCS(=O)(=O)N=C12	TRUE
COc1cc(OC)cc(C(=O)NCC(=O)OC2CCCCC2=O)c1 (stereo unspecified)	TRUE
CCC(C)C(=O)Nc1ccc(S(=O)(=O)Nc2nccs2)cc1 (stereo unspecified)	TRUE
Cc1csc(=O)n1CCC(=O)OCc1nnc(-c2ccccc2Cl)o1	TRUE
Cc1cc(NC(=O)C(=O)c2cn(C)c3ccccc23)no1	FALSE

Then this compound:
**Query** Entry Cc1ccc2[nH]c(=O)c(CC(=O)O)c(-c3ccccc3)c2c1 : is its solubility kinetic no less than 40 µg/mL?
**Result** TRUE
